# % Inhibition TF-VIIa (100 νM) annotations
# targetOrSystem: recombinant soluble tissue factor and recombinant human factor VIIa (TF-VIIa) (Homo sapiens, UniProt P08709)
# Construct: conversion of coagulation factor VII to VIIa by Xa; purchased American Diagnostica, Greenwich Conn; host or cells: factor VIIa purchased; soluble TF made in house in E. coli
# Sequence (P08709 213-466 limits assumed): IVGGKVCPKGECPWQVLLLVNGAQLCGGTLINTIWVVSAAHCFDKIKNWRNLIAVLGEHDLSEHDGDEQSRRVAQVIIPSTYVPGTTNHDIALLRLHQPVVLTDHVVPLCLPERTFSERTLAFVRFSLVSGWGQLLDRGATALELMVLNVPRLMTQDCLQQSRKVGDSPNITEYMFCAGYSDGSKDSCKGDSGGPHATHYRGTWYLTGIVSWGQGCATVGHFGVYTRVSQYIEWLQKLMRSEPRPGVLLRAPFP
# Sequence (P08709 61-212 limits assumed): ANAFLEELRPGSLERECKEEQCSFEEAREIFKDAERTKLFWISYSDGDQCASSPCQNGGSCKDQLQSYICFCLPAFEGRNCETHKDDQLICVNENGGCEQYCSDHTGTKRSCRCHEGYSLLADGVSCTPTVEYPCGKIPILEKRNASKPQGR
# Sequence (P13726 33-251 partner limits assumed): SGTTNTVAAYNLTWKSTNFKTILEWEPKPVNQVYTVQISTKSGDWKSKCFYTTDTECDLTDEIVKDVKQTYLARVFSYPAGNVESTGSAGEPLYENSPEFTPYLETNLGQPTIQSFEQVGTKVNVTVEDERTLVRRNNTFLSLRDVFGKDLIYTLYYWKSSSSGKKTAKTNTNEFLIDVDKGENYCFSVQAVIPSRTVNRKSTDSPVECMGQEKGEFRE
# assay: TF-VIIa Assay
# Format: biochemical
# conditionNotes: inhibitor at 100 νM
A complete answer gives the number and then names the unit.

For record "O=C(Cn1c(-c2ccc(Cl)cc2)c(Cl)nc(NCCN2CCOCC2)c1=O)NCCc1ccncc1" the listed % Inhibition TF-VIIa (100 νM) is 0%

For record O=C(Cn1c(-c2ccc(Cl)cc2)c(Cl)nc(NCc2ccncc2)c1=O)NCCc1ccncc1 [Example E-0024] the listed % Inhibition TF-VIIa (100 νM) is 0%

For record "O=C(Cn1c(-c2ccc3c(c2)OCO3)c(Cl)nc(NCCc2ccc(Cl)cc2)c1=O)NCCc1ccncc1" the listed % Inhibition TF-VIIa (100 νM) is 0%

For record "O=C(Cn1c(CCc2ccccc2)c(Cl)nc(NCCc2ccc(Cl)cc2)c1=O)NCCc1ccncc1" the listed % Inhibition TF-VIIa (100 νM) is 0%
